Value source: ChEMBL document CHEMBL5058577

tested on: Fibroblast; test: Multiplex assay against human fibroblast; assay type: toxicity, cell-based; details: 24 h, 10 µM, compound concentration 10 uM, replicate 2
Answer each item with its documented Population Mitotic Cells (%).
Write the quantity with the unit trailing the number.

stdin: Please provide the recorded Population Mitotic Cells (%) for O=C1[C@H](Cc2ccc(O)cc2)N2C(=O)CCN(C(=O)NCc3ccccc3)[C@H]2CN1Cc1cccc2ccccc12 , tested on Fibroblast.
stdout: 35%

stdin: # iterate: Cl.N=C(N)NC(=O)Cc1c(Cl)cccc1Cl [GUANFACINE HYDROCHLORIDE]
stdout: 75%

stdin: # iterate: NCCc1cn(S(=O)(=O)c2c(Cl)nc3sccn23)c2ccccc12.O=C(O)C(=O)O
stdout: 27%

stdin: # iterate: CC[C@@H](C)Nc1nc(C)nc2c(-c3ccc(OC)nc3C)c(C)nn12
stdout: 61%

stdin: # iterate: O=C(NCCN1CCC(n2c(=O)[nH]c3cc(Cl)ccc32)CC1)c1ccc(F)cc1 [HALOPEMIDE]
stdout: 58%

stdin: # iterate: CCCCC(=O)N(Cc1ccc(-c2ccccc2-c2nnn[nH]2)cc1)[C@H](C(=O)O)C(C)C
stdout: 64%

stdin: # iterate: CN[C@@H](C)C(=O)N[C@H](C(=O)N1CCC[C@H]1C(=O)Nc1snnc1-c1ccccc1)C1CCCCC1
stdout: 58%

stdin: # iterate: CC(C)COc1ccc(CNC(=O)N(Cc2ccc(F)cc2)C2CCN(C)CC2)cc1
stdout: 30%

----------
tested on: U2OS; assay: Multiplex assay against U2OS; format: toxicity, cell-based; conditions: human, 48 h, 10 µM, compound concentration 10 uM, replicate 1
Measured Endpoint: Population Mitochondria Different-Phenotype (%)
Hi! Could you send only the number? It should be in %, unit omitted.

stdin: Entry under review: O=C(NCCN1CCC(n2c(=O)[nH]c3cc(Cl)ccc32)CC1)c1ccc(F)cc1 [HALOPEMIDE] . Reported Population Mitochondria Different-Phenotype (%)?
stdout: 5

stdin: # iterate: CC(=O)Nc1cccc2c1c(Sc1ccc(Cl)cc1)c(C)n2CC(=O)O
stdout: 2

stdin: # iterate: Cc1sc2c(c1C)C(c1ccc(Cl)cc1)=N[C@@H](CC(=O)NCCCCCCCCNC(=O)COc1cccc3c1C(=O)N(C1CCC(=O)NC1=O)C3=O)c1nnc(C)n1-2 (some centres undefined)
stdout: 4

stdin: # iterate: CCCCC(=O)N(Cc1ccc(-c2ccccc2-c2nnn[nH]2)cc1)[C@H](C(=O)O)C(C)C
stdout: 2

stdin: # iterate: Br.CS(=O)(=O)Nc1c(O)ccc2c1CCCC2C1=NCCN1 (centres undefined)
stdout: 1

stdin: # iterate: Cc1c(CC(=O)O)c2cccnc2n1Cc1ccc(S(C)(=O)=O)cc1C(F)(F)F
stdout: 3

stdin: # iterate: CC(C)c1noc(N2CCC(COc3ccc(-c4ccc(S(C)(=O)=O)cc4)nc3)CC2)n1
stdout: 2

stdin: # iterate: N#Cc1cc(F)cc(-c2nc(-c3ccc(F)cn3)no2)c1
stdout: 2

stdin: # iterate: N#Cc1c(Oc2cccc(OS(=O)(=O)CCCC(F)(F)F)c2)cccc1C(F)(F)F
stdout: 6

----------
system: HEK-293T; test: Multiplex assay against HEK293T; format: toxicity, cell-based; settings: human, 12 h, 1 µM, compound concentration 1 uM, replicate 1
Measured Endpoint: Population Healthy Nuclei (%)
Hi! Could you send only the number? It should be in %, unit omitted.

stdin: Entry under review: CCCOc1ccc2[nH]cc(C3=CCNCC3)c2n1.Cl . Reported Population Healthy Nuclei (%)?
stdout: 81

stdin: # iterate: CC(=O)Nc1cccc2c1c(Sc1ccc(Cl)cc1)c(C)n2CC(=O)O
stdout: 81

stdin: # iterate: CCc1cc2cc(NS(=O)(=O)c3ccc(C#N)cc3)ccc2n(CC)c1=O
stdout: 78

stdin: # iterate: CC(/C=C1\SC(=S)N(CCCC(=O)Nc2ccc(C(=O)O)c(O)c2)C1=O)=C\c1ccccc1
stdout: 81

stdin: # iterate: Br.CS(=O)(=O)Nc1c(O)ccc2c1CCCC2C1=NCCN1 (stereo not drawn)
stdout: 80

stdin: # iterate: C[C@H](N)COC(=O)[C@@H](CCCCN)NC(=O)Cc1c(-c2ccc3ccccc3c2)[nH]c2c1ccc1ccccc12
stdout: 82

stdin: # iterate: CCCCCC(O)/C=C/[C@H]1C(=O)CC(O)C1C/C=C\CCCC(=O)O (stereo partly drawn)
stdout: 80

stdin: # iterate: COc1cccc2c1c(NS(=O)(=O)c1ccc(Cl)s1)nn2Cc1cccc(CNC(=O)C(C)(C)O)c1
stdout: 82

stdin: # iterate: CCCCC(=O)N(Cc1ccc(-c2ccccc2-c2nnn[nH]2)cc1)[C@H](C(=O)O)C(C)C
stdout: 80

stdin: # iterate: CN(C)C(=O)Cn1cc(-c2ccc(-c3cncc4ccccc34)cc2)cn1
stdout: 81

stdin: # iterate: Cc1c(CC(=O)O)c2cccnc2n1Cc1ccc(S(C)(=O)=O)cc1C(F)(F)F
stdout: 83

stdin: # iterate: Cc1cnc(-c2cc(N3CCN(C(=O)CCS(C)(=O)=O)CC3)ncc2Cl)c(C)c1
stdout: 76

stdin: # iterate: Cc1cccc(NC(=O)CN2CCC(c3ccccn3)CC2)c1.Cl.Cl
stdout: 76

stdin: # iterate: O=C(CCCc1ccccc1)Nc1nc2ccccc2c(=O)s1
stdout: 83

stdin: # iterate: CC(C)(C)c1cc(NC(=O)Nc2ccc(-c3cn4c(n3)sc3cc(OCCN5CCOCC5)ccc34)cc2)no1
stdout: 83

stdin: # iterate: Cc1sc2c(c1C)C(c1ccc(Cl)cc1)=N[C@@H](CC(=O)NCCCCCCCCNC(=O)COc1cccc3c1C(=O)N(C1CCC(=O)NC1=O)C3=O)c1nnc(C)n1-2 (stereo partly drawn)
stdout: 55

stdin: # iterate: Cl.N=C(N)NC(=O)Cc1c(Cl)cccc1Cl [GUANFACINE HYDROCHLORIDE]
stdout: 84

stdin: # iterate: N#Cc1cc(F)cc(-c2nc(-c3ccc(F)cn3)no2)c1
stdout: 76

stdin: # iterate: CN1CCN(c2cc(-c3ccccc3)nc(N)n2)CC1
stdout: 79

stdin: # iterate: NCCc1cn(S(=O)(=O)c2c(Cl)nc3sccn23)c2ccccc12.O=C(O)C(=O)O
stdout: 83

stdin: # iterate: Cc1onc(-c2ccccc2Cl)c1C(=O)N(C)c1ccc(Cl)cc1
stdout: 79

stdin: # iterate: COc1ccccc1N1CCN(C[C@@H](C(=O)NC(C)(C)C)c2ccccc2)CC1.Cl.Cl
stdout: 77

stdin: # iterate: COC[C@@H](c1ccc(C(F)(F)F)cc1)N1CCN(C2(C)CCN(C(=O)c3c(C)ncnc3C)CC2)C[C@@H]1C.O=C(O)/C=C\C(=O)O [VICRIVIROC MALEATE]
stdout: 80

stdin: # iterate: Cl.NCCc1ccc(O)c(O)c1 [DOPAMINE HYDROCHLORIDE]
stdout: 77

stdin: # iterate: CC(C)c1noc(N2CCC(COc3ccc(-c4ccc(S(C)(=O)=O)cc4)nc3)CC2)n1
stdout: 78

stdin: # iterate: CC[C@@H](C)Nc1nc(C)nc2c(-c3ccc(OC)nc3C)c(C)nn12
stdout: 79

stdin: # iterate: O=C1[C@H](Cc2ccc(O)cc2)N2C(=O)CCN(C(=O)NCc3ccccc3)[C@H]2CN1Cc1cccc2ccccc12
stdout: 80

stdin: # iterate: O=C(NCCN1CCC(n2c(=O)[nH]c3cc(Cl)ccc32)CC1)c1ccc(F)cc1 [HALOPEMIDE]
stdout: 81

stdin: # iterate: CC(C)COc1ccc(CNC(=O)N(Cc2ccc(F)cc2)C2CCN(C)CC2)cc1
stdout: 82

stdin: # iterate: N#Cc1c(Oc2cccc(OS(=O)(=O)CCCC(F)(F)F)c2)cccc1C(F)(F)F
stdout: 86

stdin: # iterate: CCCCC1=NC2(CCCC2)C(=O)N1Cc1ccc(-c2ccccc2-c2nnn[nH]2)cc1
stdout: 79

stdin: # iterate: Cc1noc(-c2ccc(-c3ccc(CC(=O)O)cc3)cc2)c1NC(=O)O[C@H](C)c1ccccc1Cl
stdout: 79

stdin: # iterate: CN[C@@H](C)C(=O)N[C@H](C(=O)N1CCC[C@H]1C(=O)Nc1snnc1-c1ccccc1)C1CCCCC1
stdout: 78
